Test system: human ovarian cancer SK-OV-3
Details: D4; 24 mg/kg (paclitaxel 16 mg/kg) D0-4 IV
Can you tell me Weight change (%) D4 for the items I'm about to list?
Report the figure in % without appending any unit label.

Asked: Item CCN(CC)CC[C@H](F)C(=O)O[C@@H](C(=O)O[C@H]1C[C@@]2(O)[C@@H](OC(=O)c3ccccc3)[C@@H]3[C@]4(OC(C)=O)CO[C@@H]4C[C@H](O)[C@@]3(C)C(=O)[C@H](OC(C)=O)C(=C1C)C2(C)C)[C@@H](NC(=O)c1ccccc1)c1ccccc1.O=C(O)/C=C/C(=O)O has what recorded Weight change (%) D4?
Given back: −8.1

Asked: Recorded Weight change (%) D4 for CC(=O)OC1C(=O)C2(C)C(O)CC3OCC3(OC(C)=O)C2C(OC(=O)c2ccccc2)C2(O)CC(OC(=O)C(OC(=O)C(CCN(C)C)C(F)(F)F)C(NC(=O)c3ccccc3)c3ccccc3)C(C)=C1C2(C)C.Cc1ccc(S(=O)(=O)O)cc1 (stereo not drawn) , please?
Given back: −8.9

Asked: Can you look up the measured Weight change (%) D4 of CC(=O)O[C@H]1C(=O)[C@@]2(C)[C@H]([C@H](OC(=O)c3ccccc3)[C@]3(O)C[C@H](OC(=O)[C@H](OC(=O)C(CCN(C)C)C(F)F)[C@@H](NC(=O)c4ccccc4)c4ccccc4)C(C)=C1C3(C)C)[C@]1(OC(C)=O)CO[C@@H]1C[C@@H]2O.Cl (stereo partly drawn) for me?
Given back: −8.4

Asked: Which measured Weight change (%) D4 value corresponds to CC(=O)O[C@H]1C(=O)[C@@]2(C)[C@H]([C@H](OC(=O)c3ccccc3)[C@]3(O)C[C@H](OC(=O)[C@H](OC(=O)[C@H](F)CCCN(C)C)[C@@H](NC(=O)c4ccccc4)c4ccccc4)C(C)=C1C3(C)C)[C@]1(OC(C)=O)CO[C@@H]1C[C@@H]2O.O=C(O)/C=C\C(=O)O ?
Given back: −9.4

Asked: Data request, read-out Weight change (%) D4, for CC(=O)O[C@H]1C(=O)[C@@]2(C)[C@H]([C@H](OC(=O)c3ccccc3)[C@]3(O)C[C@H](OC(=O)[C@H](OC(=O)C(F)CCN(C)C(C)C)[C@@H](NC(=O)c4ccccc4)c4ccccc4)C(C)=C1C3(C)C)[C@]1(OC(C)=O)CO[C@@H]1C[C@@H]2O.Cl (stereo partly drawn)
Given back: −10.3

Asked: Give the measured Weight change (%) D4 of CCN(C)CC[C@@H](F)C(=O)O[C@@H](C(=O)O[C@H]1C[C@@]2(O)[C@@H](OC(=O)c3ccccc3)[C@@H]3[C@]4(OC(C)=O)CO[C@@H]4C[C@H](O)[C@@]3(C)C(=O)[C@H](OC(C)=O)C(=C1C)C2(C)C)[C@@H](NC(=O)c1ccccc1)c1ccccc1.CS(=O)(=O)O .
Given back: −7.0
